Target: Human C3 (Complement tech cat #A113c) (human, UniProt P01024 23-1663)
Sequence (P01024 23-1663 limits assumed): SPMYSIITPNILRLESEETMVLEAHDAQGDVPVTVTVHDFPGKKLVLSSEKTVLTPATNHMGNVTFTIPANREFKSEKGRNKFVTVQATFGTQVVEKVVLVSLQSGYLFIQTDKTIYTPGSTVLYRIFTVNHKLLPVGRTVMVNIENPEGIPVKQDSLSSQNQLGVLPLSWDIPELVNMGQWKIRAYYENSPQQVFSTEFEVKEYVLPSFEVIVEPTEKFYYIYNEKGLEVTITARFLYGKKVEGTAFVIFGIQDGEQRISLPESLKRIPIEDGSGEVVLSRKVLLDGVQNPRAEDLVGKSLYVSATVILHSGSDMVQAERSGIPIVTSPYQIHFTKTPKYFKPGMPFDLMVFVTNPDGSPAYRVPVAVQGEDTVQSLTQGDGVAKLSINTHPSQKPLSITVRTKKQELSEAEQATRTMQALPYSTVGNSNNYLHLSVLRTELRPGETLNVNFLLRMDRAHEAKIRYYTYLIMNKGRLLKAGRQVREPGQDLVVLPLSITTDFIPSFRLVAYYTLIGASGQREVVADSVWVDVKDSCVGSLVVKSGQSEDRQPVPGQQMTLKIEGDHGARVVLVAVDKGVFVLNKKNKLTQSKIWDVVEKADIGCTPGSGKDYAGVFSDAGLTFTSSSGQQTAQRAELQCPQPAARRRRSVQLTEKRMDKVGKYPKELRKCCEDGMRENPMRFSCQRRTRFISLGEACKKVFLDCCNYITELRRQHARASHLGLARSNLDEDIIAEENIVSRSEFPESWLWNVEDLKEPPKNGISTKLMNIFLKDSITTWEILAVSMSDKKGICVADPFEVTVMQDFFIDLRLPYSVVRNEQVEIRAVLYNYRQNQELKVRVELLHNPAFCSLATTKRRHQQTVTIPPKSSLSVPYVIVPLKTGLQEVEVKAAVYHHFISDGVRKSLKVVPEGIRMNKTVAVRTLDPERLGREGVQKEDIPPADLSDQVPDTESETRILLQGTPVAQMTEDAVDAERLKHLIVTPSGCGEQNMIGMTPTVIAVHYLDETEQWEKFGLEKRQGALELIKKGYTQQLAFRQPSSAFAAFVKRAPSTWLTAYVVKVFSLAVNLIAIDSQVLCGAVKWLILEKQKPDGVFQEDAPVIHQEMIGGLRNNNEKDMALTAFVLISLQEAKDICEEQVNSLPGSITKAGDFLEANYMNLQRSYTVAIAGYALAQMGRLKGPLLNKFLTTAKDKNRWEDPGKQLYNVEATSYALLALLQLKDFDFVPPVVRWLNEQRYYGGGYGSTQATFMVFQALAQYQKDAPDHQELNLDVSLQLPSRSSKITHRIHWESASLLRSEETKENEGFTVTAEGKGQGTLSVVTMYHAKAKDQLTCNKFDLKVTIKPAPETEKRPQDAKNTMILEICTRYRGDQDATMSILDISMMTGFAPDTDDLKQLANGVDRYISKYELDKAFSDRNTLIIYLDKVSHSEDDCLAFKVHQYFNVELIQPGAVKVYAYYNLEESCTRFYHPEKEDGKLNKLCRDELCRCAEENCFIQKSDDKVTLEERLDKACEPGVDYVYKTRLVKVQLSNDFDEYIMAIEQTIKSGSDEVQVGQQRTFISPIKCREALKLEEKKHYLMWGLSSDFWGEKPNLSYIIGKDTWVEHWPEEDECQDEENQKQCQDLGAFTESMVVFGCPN
Experiment: cell-based or functional assay
Positions of bridges follow the written chain, without caps; N, C: chain ends. Non-standard residues stand in square brackets, D forms with d. *: point of attachment. Trp(1-Me) = Cn1cc(C[C@H](N)C(=O)O)c2ccccc21; C16 diacid = O=C(O)CCCCCCCCCCCCCCC(=O)*; AEEA = NCCOCCOCC(=O)O; Sar = CNCC(=O)O
parameter-measured: inhibition of hemolysis IC50

- Ac-SEFCI[Trp(1-Me)]QDW[Sar]EHRC[Sar]E-NH2 (disulfide 4-14; SMILES CC[C@H](C)[C@@H]1NC(=O)[C@@H](NC(=O)[C@H](Cc2ccccc2)NC(=O)[C@H](CCC(=O)O)NC(=O)[C@H](CO)NC(C)=O)CSSC[C@@H](C(=O)N(C)CC(=O)N[C@@H](CCC(=O)O)C(N)=O)NC(=O)[C@H](CCCNC(=N)N)NC(=O)[C@H](Cc2c[nH]cn2)NC(=O)[C@H](CCC(=O)O)NC(=O)CN(C)C(=O)[C@H](Cc2c[nH]c3ccccc23)NC(=O)[C@H](CC(=O)O)NC(=O)[C@H](CCC(N)=O)NC(=O)[C@H](Cc2cn(C)c3ccccc23)NC1=O) [Compound 79]: < 100 nM

Take each entry in turn and give its inhibition of hemolysis IC50.
1. {C16 diacid}-ESSAICIWQDWGEHRCTEGE-NH2 (disulfide 6-16) [Compound 99]
2. Ac-SEFCI[Trp(1-Me)]QDWGEHRC[Sar]EGE-{AEEA-AEEA-K(γGlu-Gly-γGlu-19-carboxy-nonadecanoyl)-NH2} (disulfide 4-14, also called comp 128) [Compound 128]

Output line:
["< 250 nM", "< 100 nM"]

Values from patent US11965039B2
